Assay: Measurement of Compound Metabolic Stability in hepatocytes
Assay type: in vitro ADME
Details: mouse hepatocytes; read-out: CLint (μL/min/10^6)
Protocol: The metabolic stability of compounds was determined in hepatocytes from human, mice and rats. Compounds were diluted to 5 μM in Williams' Medium E from 10 mM stock solutions. […] Supernatants were analyzed by LC/MS/MS. The Half-lives (in minutes) and CLint values (in μL/min/10^6 cells) of example compounds, as measured in mouse hepatocytes, are presented in Table 3. […]
measurement.type: hepatocyte CLint at 1 μM

# compound, measurement.type, result
records = [
    ("Nc1nc2cc([C@H]3C[C@@]4(CO3)C[C@@H](n3ccc5cncnc53)[C@H](O)[C@@H]4O)ccc2cc1Br [Compound 22]", "hepatocyte CLint at 1 μM", "> 100 µL/min/1e6 cells"),
    ("CCNc1ncnc2c1ccn2[C@@H]1C[C@@]2(CO[C@@H](c3ccc4cc(Br)c(N)nc4c3)C2)[C@@H](O)[C@H]1O [Compound 24]", "hepatocyte CLint at 1 μM", "50 to 100 µL/min/1e6 cells"),
    ("Nc1nc2cc(C3C[C@@]4(CO3)C[C@@H](n3ccc5c(Cl)ncnc53)[C@H](O)[C@@H]4O)ccc2cc1Br (some centres unmarked) [Compound 17]", "hepatocyte CLint at 1 μM", "50 to 100 µL/min/1e6 cells"),
    ("Cc1ncnc2c1ccn2[C@@H]1C[C@@]2(CO[C@@H](c3ccc4cc(Br)c(N)nc4c3)C2)[C@@H](O)[C@H]1O [Compound 19]", "hepatocyte CLint at 1 μM", "< 50 µL/min/1e6 cells"),
    ("Nc1ccc2ccc([C@H]3C[C@@]4(CO3)C[C@@H](n3ccc5c(Cl)ncnc53)[C@H](O)[C@@H]4O)cc2n1 [Compound 20]", "hepatocyte CLint at 1 μM", "> 100 µL/min/1e6 cells"),
    ("Nc1ccc2ccc([C@H]3C[C@@]4(CO3)C[C@@H](n3ccc5cncnc53)[C@H](O)[C@@H]4O)cc2n1 [Compound 21]", "hepatocyte CLint at 1 μM", "> 100 µL/min/1e6 cells"),
    ("CNc1ncnc2c1ccn2[C@@H]1C[C@@]2(CO[C@@H](c3ccc4cc(Br)c(N)nc4c3)C2)[C@@H](O)[C@H]1O [Compound 23]", "hepatocyte CLint at 1 μM", "< 50 µL/min/1e6 cells"),
    ("Nc1nc2cc(C3C[C@@]4(CO3)C[C@@H](n3ccc5c(N)ncnc53)[C@H](O)[C@@H]4O)ccc2cc1Br (single isomer, unassigned) [Compound 15]", "hepatocyte CLint at 1 μM", "< 50 µL/min/1e6 cells"),
]

###

Parameter 'readout' = IC50; parameter 'system' = PRMT5 (Homo sapiens, UniProt O14744).
Sequence (O14744 2-637 limits assumed): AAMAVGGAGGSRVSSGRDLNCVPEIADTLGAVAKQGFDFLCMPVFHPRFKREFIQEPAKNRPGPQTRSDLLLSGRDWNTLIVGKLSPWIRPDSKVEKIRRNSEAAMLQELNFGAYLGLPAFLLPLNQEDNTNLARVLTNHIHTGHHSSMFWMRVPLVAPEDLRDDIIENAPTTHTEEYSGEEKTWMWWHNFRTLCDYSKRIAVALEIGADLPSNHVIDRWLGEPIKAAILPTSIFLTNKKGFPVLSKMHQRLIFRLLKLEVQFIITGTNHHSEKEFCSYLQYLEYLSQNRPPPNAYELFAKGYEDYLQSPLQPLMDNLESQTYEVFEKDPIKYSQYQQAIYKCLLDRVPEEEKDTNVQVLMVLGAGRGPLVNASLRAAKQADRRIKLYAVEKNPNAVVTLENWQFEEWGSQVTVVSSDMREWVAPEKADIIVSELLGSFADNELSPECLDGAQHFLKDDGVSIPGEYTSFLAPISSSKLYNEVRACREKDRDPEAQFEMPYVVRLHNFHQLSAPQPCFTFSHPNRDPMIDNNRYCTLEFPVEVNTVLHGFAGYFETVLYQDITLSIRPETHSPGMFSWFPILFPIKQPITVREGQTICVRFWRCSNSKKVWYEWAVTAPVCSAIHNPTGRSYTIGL
Sequence (Q9BQA1 2-342 partner limits assumed): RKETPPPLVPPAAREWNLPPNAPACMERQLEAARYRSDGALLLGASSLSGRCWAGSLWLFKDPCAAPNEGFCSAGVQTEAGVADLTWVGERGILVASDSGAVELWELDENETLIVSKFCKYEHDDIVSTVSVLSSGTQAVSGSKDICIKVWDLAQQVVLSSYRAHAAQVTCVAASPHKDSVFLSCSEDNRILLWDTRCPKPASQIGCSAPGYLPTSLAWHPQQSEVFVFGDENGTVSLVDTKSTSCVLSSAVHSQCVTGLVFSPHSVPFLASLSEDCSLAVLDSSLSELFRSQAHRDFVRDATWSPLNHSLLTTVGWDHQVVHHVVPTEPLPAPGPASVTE

# compound, IC50
measured = [
    ("CN1C[C@]2(CC1c1ccc3cc(Br)c(N)nc3c1)C[C@@H](n1ccc3c(N)ncnc31)[C@H](O)[C@@H]2O (single isomer, unassigned)", "0.101 to 0.5 µM"),
    ("O[C@H]1[C@H](n2ccc3c(Cl)ncnc32)C[C@@]2(CNC(c3ccc4cc(Br)c(Cl)nc4c3)C2)[C@H]1O (single isomer, unassigned)", "> 0.5 µM"),
    ("Nc1ccc2ccc([C@H]3C[C@@]4(CO3)C[C@@H](n3ccc5c(Cl)ncnc53)[C@H](O)[C@@H]4O)cc2n1", "≤ 0.1 µM"),
]
